target: human ORL1 receptor (Homo sapiens, UniProt P41146); assay: ORL1 receptor functional assay ([35S]GTPγS binding, nociceptin stimulated); conditions: at 10 nM nociceptin stimulation; human ORL1 receptor transfected HEK-293 cell membranes
Sequence (P41146 whole entry): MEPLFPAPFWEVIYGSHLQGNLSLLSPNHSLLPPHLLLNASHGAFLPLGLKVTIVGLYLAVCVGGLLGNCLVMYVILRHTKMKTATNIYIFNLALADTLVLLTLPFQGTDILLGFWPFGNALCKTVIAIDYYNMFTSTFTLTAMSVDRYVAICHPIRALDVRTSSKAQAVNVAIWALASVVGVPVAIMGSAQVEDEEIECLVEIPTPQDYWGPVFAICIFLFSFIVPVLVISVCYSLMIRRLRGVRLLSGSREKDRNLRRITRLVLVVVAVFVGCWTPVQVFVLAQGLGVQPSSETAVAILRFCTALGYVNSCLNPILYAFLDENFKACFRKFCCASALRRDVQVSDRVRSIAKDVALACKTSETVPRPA
Measured IC50 by item

| molecule | IC50, nM |
| --- | --- |
| O=C1COc2cccc3c2N1CC(CN1CCC2(CCc4ccccc42)CC1)C3 (centres unmarked) | 13 |
| CN1CC2(CCN(CC3Cc4cccc(O)c4NC3=O)CC2)c2ccccc21 (centres unmarked) | 13 |

Where these numbers come from: patent US6869960B2
